assay_system: T1, B-cat-Halo (UniProt P35222 1-781)
T1 sequence (looked up): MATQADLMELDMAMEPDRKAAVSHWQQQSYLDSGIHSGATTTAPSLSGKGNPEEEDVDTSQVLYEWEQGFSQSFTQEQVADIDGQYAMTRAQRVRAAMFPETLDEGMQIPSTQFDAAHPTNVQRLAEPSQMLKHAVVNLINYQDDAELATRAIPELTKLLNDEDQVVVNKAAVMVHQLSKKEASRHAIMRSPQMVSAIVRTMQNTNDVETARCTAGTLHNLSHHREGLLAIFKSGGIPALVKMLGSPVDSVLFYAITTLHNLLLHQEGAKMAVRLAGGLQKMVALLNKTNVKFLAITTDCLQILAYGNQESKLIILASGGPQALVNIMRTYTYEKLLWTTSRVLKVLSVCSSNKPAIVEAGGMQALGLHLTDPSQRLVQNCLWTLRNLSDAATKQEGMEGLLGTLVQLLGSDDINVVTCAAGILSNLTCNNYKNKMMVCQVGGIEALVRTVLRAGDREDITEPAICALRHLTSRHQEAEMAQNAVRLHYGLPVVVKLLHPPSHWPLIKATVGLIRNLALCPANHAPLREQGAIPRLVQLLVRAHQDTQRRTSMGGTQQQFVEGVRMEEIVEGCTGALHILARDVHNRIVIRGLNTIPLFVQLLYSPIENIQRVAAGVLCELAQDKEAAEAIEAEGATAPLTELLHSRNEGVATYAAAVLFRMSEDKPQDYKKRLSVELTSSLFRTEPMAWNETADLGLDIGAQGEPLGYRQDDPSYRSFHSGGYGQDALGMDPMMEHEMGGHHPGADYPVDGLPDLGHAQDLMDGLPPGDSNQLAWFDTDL
assay_overview: cell-based or functional assay
Starred links: 1 amine or outer side, 2 acyl side, 3 side chain; linkers in the order of their positions; H or OH if unused. Positions of bridges follow the written chain, without caps; N, C: chain ends. Non-standard residues stand in square brackets, D forms with d. Primed or numbered codes have the meaning given here. No end group written: not given here. PyrS2″ = (S)-3-amino-1-((pent-4-en-1-yloxy)carbonyl)pyrrolidine-3-carboxylic acid (stapling residue), C=CCCCOC(=O)N1CC[C@@](N[*:1])(C(=O)[*:2])C1; B5(4) = 2,2-bis(4-pentenyl)glycine = 2-amino-2-(pent-4-en-1-yl)hept-6-enoic acid (stitching residue), C=CCCCC(CCCC=C)(N[*:1])C(=O)[*:2]; Phe(2-CONH2) = NC(=O)c1ccccc1C[C@H](N)C(=O)O; Phe(2-OMe) = COc1ccccc1C[C@H](N)C(=O)O; Phe(2-F) = N[C@@H](Cc1ccccc1F)C(=O)O; Bta = N[C@@H](Cc1csc2ccccc12)C(=O)O; αAllylPro = C=CC[C@@]1(C(=O)O)CCCN1; tBuAla = CC(C)(C)C[C@H](N)C(=O)O
property_measured: NanoBRET Abs IC50

Problem: Which NanoBRET Abs IC50 reading was recorded for the binder [αAllylPro]D[tBuAla][B5(4)]DDAAFL[PyrS2″][Phe(2-OMe)][Bta]Q-NH2 (staple 1-4, 4-11) [I-1327] ?
Solution: 7 µM

Problem: // returns reported NanoBRET Abs IC50 for input Ac-[αAllylPro]D[tBuAla][B5(4)]DDAAFN[PyrS2″][Phe(2-CONH2)][Bta]Q-NH2 (staple 1-4, 4-11) [I-1314]
Solution: > 20 µM

Problem: Entry Ac-[αAllylPro]D[tBuAla][B5(4)]DDAAFF[PyrS2″][Phe(2-F)][Bta]Q-NH2 (staple 1-4, 4-11) [I-1322] has what NanoBRET Abs IC50?
Solution: 9.1 µM

Measured values drawn from patent US20240116985A1 for this set.
